Assay: Half life in iv dosed rhesus monkey
Assay type: ADME, organism-based, Macaca mulatta
Settings: in vivo
EXPERIMENTAL ENDPOINT: half-life (min)
Numbers only; they are read as min.

Ask: If you can, please state the reported half-life value of `COc1ccc(CNC(=O)c2cc(-c3cncc(Cl)c3)cnc2-c2ccccn2)nc1OC` .
Result: 48

###

Test: Half life in iv dosed dog
Assay type: ADME, organism-based, Canis lupus familiaris
Details: in vivo
EXPERIMENTAL ENDPOINT: half-life
State the result as a value with its unit after it.

Ask: For the molecule shown here, `Cc1ccc(-c2ncccn2)c(C(=O)N2C[C@H](COc3ccc(F)cn3)CC[C@H]2C)c1` , give the reported half-life.
Result: 2.3 h

###

Assay: Oral bioavailability in Wistar rat at 10 mg/kg
Assay type: ADME, organism-based
Settings: in vivo
EXPERIMENTAL ENDPOINT: bioavailability (%)
Quick note: give the figure in %, leave out the unit.

Ask: Recorded bioavailability for `COc1ccc(S(=O)(=O)N2CCC[C@H]2C(=O)Nc2cc(C)cc(C)c2)cc1` , please?
Result: 39

###

Assay: Plasma protein binding in rat
Format: ADME, cell-free
Conditions: read-out: PPB (converted)
EXPERIMENTAL ENDPOINT: fraction unbound
Kindly provide the number alone.

Ask: Which value of fraction unbound has been reported for Cc1ccc(-c2ncccn2)c(C(=O)N2C[C@H](COc3ccc(F)cn3)CC[C@H]2C)c1 [FILOREXANT] in the records?
Result: 0.05

###

Assay: Ratio of drug level in CSF to plasma in Wistar rat
EXPERIMENTAL ENDPOINT: Kp
Field format: numeric only.

Ask: Request the reported Kp associated with `CNC(=O)[C@@H](c1ccccc1)N1CCc2cc(OC)c(OC)cc2[C@@H]1CCc1ccc(C(F)(F)F)cc1`
Result: 0.002

###

Assay: Clearance in Wistar rat at 1 mg/kg, iv
Type: ADME, organism-based
Conditions: in vivo
EXPERIMENTAL ENDPOINT: clearance (mL/min/kg)
Respond with the bare value in mL/min/kg.

Ask: Request the reported clearance associated with `COc1ccc(S(=O)(=O)N2CCC[C@H]2C(=O)Nc2cc(C)cc(C)c2)cc1`
Result: 29

###

Test: Oral bioavailability in rat
Type: ADME, organism-based
Conditions: in vivo
EXPERIMENTAL ENDPOINT: bioavailability (%)
Numeric answer only, unit % assumed.

Ask: Would you mind telling me what bioavailability value was observed for Cc1ccc(-c2ncccn2)c(C(=O)N2C[C@H](COc3ccc(F)cn3)CC[C@H]2C)c1 [FILOREXANT] ?
Result: 25

###

Assay: Elimination half life in human at 1 to 1000 mg administered as single dose
Assay type: ADME, organism-based
Conditions: in vivo, read-out: beta t1/2 (converted)
EXPERIMENTAL ENDPOINT: half-life (h)
// units = h; emit number, no label

Ask: Item `CNC(=O)[C@@H](c1ccccc1)N1CCc2cc(OC)c(OC)cc2[C@@H]1CCc1ccc(C(F)(F)F)cc1` has what recorded half-life?
Result: 13.1

###

Assay: Apparent half life of the compound in human
Type: ADME, organism-based
Conditions: in vivo, read-out: t1/2(app) (converted)
EXPERIMENTAL ENDPOINT: half-life
Include the unit right after the number.

Ask: Quick one: half-life of Cc1nc(C(=O)N2CCCC[C@H]2CNC(=O)c2cccc3occc23)c(-c2ccc(F)cc2)s1 (stereo in doubt; form 1) [SB-649868] ?
Result: 5 h
